# SYSTEM UNDER TEST: SARS-CoV-2 3CLpro (Severe acute respiratory syndrome coronavirus 2, UniProt P0DTD1)
METRIC: pIC50
Remember, pIC50 is on a log scale: it is -log10 of the molar concentration.

IN: Can you look up the measured pIC50 of COC(=O)c1c(C)[nH]c(C(=O)COn2nnc3ccc(S(=O)(=O)N(C)C)cc32)c1C [Compound 12] for me?
OUT: 5.88

###

# SYSTEM UNDER TEST: UniProtKB P0DTD1
METRIC: IC50 (nM)
Your answer should be a plain number; it is taken to be in nM.

IN: Consider the compound shown here: COC(=O)c1c(C)[nH]c(C(=O)COn2nnc3ccc(S(=O)(=O)N(C)C)cc32)c1C [Compound 12] What is its recorded IC50?
OUT: 350
